# System: P. falciparum 3D7 parasites
# assay-protocol: P. falciparum growth inhibition assay, 2-cycle (120 h treatment), delayed-death screen and dose-response
# Type: cell-based, Plasmodium falciparum
# settings: P. falciparum, 120 h, parasite screen 2 μg/mL, % growth, replicate 2
Where a SMILES comes first, the peptide text is derived from it. [ ]: non-standard residue; d: D form. d(aIle) = CC[C@H](C)[C@@H](N)C(=O)O; NMeL = CN[C@@H](CC(C)C)C(=O)O; Hiv = CC(C)[C@H](O)C(=O)O
Readings of Pf_120h_%Growth_Rep2 for the listed compounds
All answers are understood in %, so give the number only.

{"compound": "CC[C@H](C)[C@H]1NC(=O)[C@H](C(C)C)OC(=O)[C@H](CC(C)C)N(C)C(=O)[C@H](C(C)C)NC(=O)[C@H](C(C)C)OC(=O)[C@@H](CC(C)C)NC1=O [Sporidesmolide II] (cyclo([Hiv]V[NMeL][Hiv][d(aIle)][dL]))", "measurement-unit": "%", "Pf_120h_%Growth_Rep2": 130.73}

Q: Name the reported Pf_120h_%Growth_Rep2 value associated with the compound CO[C@H]1/C=C\C=C(/C)C(=O)Nc2cc(O)cc(c2O)[C@H](OC)[C@@H](C)C[C@H](OC)[C@H](O)[C@@H](C)/C=C(\C)[C@@H]1OC(N)=O [TAN 420C]
Result: 5.24

Q: Name the reported Pf_120h_%Growth_Rep2 value associated with the compound COc1ccc2c(c1)N(C(C)=O)[C@H]1[C@@H]3CO[C@H](C)[C@@H]4CN5CC[C@]21[C@@H]5C[C@H]34 [Strychnospermine]
Result: 76.73

Q: Name the reported Pf_120h_%Growth_Rep2 value associated with the compound C[C@@H]1CC[C@H](O)/C=C/C(=O)O[C@H](C)CC[C@H](O)/C=C/C(=O)O1 [Pyrenophorol]
Result: 75.99

Q: Name the reported Pf_120h_%Growth_Rep2 value associated with the compound CC[C@@H](O)[C@@](C)(O)[C@@H]1OC(=O)[C@H](C)[C@@H](O[C@H]2C[C@@](C)(OC)[C@@H](O)[C@H](C)O2)[C@H](C)[C@@H](O[C@@H]2O[C@H](C)C[C@H](N(C)C)[C@H]2O)[C@@]2(C)CC(C)=C(O2)[C@@H]1C [Pseudoerythromycin A enol ether]
Result: 110.79
